Source of measurements: ChEMBL document CHEMBL1149457

This section presents compounds with their documented Ratio values.
System: Caco-2
experimental.details: Ratio of permeability from basolateral to apical over apical to basolateral side of the Caco-2 cell membrane in presence of 50 uM MK 571
Assay type: ADME, cell-based
test.conditions: human
Provide a numeric answer; units are not to be included.

Past entries and their recorded results:
CC(=O)N[C@@H](Cc1ccc(O)cc1)C(=O)N[C@@H](C)C(=O)NCC(=O)N[C@@H](Cc1ccccc1)C(=O)N[C@H](CC(C)C)C(N)=O = 3.8
CC(C)C[C@H]1NC(=O)[C@H](Cc2ccccc2)NC(=O)CNC(=O)[C@@H](C)NC(=O)[C@H](Cc2ccc(O)cc2)NC(=O)/C=C\c2ccccc2OCOC1=O = 4.9
CC(=O)N[C@@H](Cc1ccc(O)cc1)C(=O)N[C@H](C)C(=O)NCC(=O)N[C@@H](Cc1ccccc1)C(=O)N[C@@H](CC(C)C)C(N)=O = 1.1

Param readout = Ratio; param system = Caco-2; param query = CC(C)C[C@@H]1NC(=O)[C@H](Cc2ccccc2)NC(=O)CNC(=O)[C@@H](C)NC(=O)[C@H](Cc2ccc(O)cc2)NC(=O)/C=C\c2ccccc2OCOC1=O ; response: value
2.8

* * *

System: Caco-2
experimental.details: Ratio of permeability from basolateral to apical over apical to basolateral side of the Caco-2 cell membrane in presence of 10 uM GF 120918
Assay type: ADME, cell-based
test.conditions: human
This section presents molecules with their documented Ratio values.
Provide a numeric answer; units are not to be included.

CC(=O)N[C@@H](Cc1ccc(O)cc1)C(=O)N[C@@H](C)C(=O)NCC(=O)N[C@@H](Cc1ccccc1)C(=O)N[C@H](CC(C)C)C(N)=O = 1
CC(C)C[C@H]1NC(=O)[C@H](Cc2ccccc2)NC(=O)CNC(=O)[C@@H](C)NC(=O)[C@H](Cc2ccc(O)cc2)NC(=O)/C=C\c2ccccc2OCOC1=O = 2.8

// next entry
Name the recorded Ratio for CC(C)C[C@@H]1NC(=O)[C@H](Cc2ccccc2)NC(=O)CNC(=O)[C@H](C)NC(=O)[C@H](Cc2ccc(O)cc2)NC(=O)/C=C\c2ccccc2OCOC1=O .
1.9

* * *

Test system: Caco-2
experimental.details: Ratio of permeability from basolateral to apical over apical to basolateral side of the Caco-2 cell membrane in presence of 10 uM GF 120918
Format: ADME, cell-based
test.conditions: human
This section presents compounds with their documented Ratio values.
Provide a numeric answer; units are not to be included.

Past entries and their recorded results:
CC(C)C[C@@H]1NC(=O)[C@H](Cc2ccccc2)NC(=O)CNC(=O)[C@@H](C)NC(=O)[C@H](Cc2ccc(O)cc2)NC(=O)/C=C\c2ccccc2OCOC1=O = 2.3
CC(=O)N[C@@H](Cc1ccc(O)cc1)C(=O)N[C@H](C)C(=O)NCC(=O)N[C@@H](Cc1ccccc1)C(=O)N[C@@H](CC(C)C)C(N)=O = 1.1

Name the recorded Ratio for CC(C)C[C@H]1NC(=O)[C@H](Cc2ccccc2)NC(=O)CNC(=O)[C@H](C)NC(=O)[C@H](Cc2ccc(O)cc2)NC(=O)/C=C\c2ccccc2OCOC1=O .
2.1

* * *

System: Caco-2
experimental.details: Ratio of permeability from basolateral to apical over apical to basolateral side of the Caco-2 cell membrane in presence of 20 uM cyclosporin A
Assay type: ADME, cell-based
test.conditions: human
experimental.endpoint: Ratio

CC(C)C[C@@H]1NC(=O)[C@H](Cc2ccccc2)NC(=O)CNC(=O)[C@@H](C)NC(=O)[C@H](Cc2ccc(O)cc2)NC(=O)/C=C\c2ccccc2OCOC1=O = 14

// next entry
Name the recorded Ratio for CC(=O)N[C@@H](Cc1ccc(O)cc1)C(=O)N[C@@H](C)C(=O)NCC(=O)N[C@@H](Cc1ccccc1)C(=O)N[C@H](CC(C)C)C(N)=O .
1.2
